Hey, just so you know, these numbers are from patent US20090175796A1.

Molecular target: T1, 24P4C12 protein (human) (human, UniProt Q53GD3 1-710)
T1 construct: whole, on cells; also called SLC44A4; CTL4
T1 sequence (looked up): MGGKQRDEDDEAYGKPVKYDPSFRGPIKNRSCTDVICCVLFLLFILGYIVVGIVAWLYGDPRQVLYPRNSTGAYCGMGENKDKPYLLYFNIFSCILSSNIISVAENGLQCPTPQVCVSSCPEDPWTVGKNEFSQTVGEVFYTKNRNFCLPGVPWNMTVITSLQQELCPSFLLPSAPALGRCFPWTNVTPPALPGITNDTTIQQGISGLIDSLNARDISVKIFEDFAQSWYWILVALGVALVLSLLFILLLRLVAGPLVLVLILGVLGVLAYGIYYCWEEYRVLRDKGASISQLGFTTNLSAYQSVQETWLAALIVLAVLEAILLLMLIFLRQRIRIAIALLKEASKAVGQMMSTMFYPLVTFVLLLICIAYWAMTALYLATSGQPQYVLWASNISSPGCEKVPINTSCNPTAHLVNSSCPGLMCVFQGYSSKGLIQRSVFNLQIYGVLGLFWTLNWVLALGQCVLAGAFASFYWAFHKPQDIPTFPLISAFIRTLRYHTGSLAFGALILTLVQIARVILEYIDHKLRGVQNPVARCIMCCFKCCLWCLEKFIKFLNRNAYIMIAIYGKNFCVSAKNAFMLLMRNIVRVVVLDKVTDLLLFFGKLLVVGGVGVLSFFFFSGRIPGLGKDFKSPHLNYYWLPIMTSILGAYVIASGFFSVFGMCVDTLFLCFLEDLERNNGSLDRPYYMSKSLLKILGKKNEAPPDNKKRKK
Experiment: FACS saturation equilibrium binding on LNCaP cells
Hi! Could you tag entries with Kd below 2 nM as MET, and those at or above as NOT MET? Much appreciated.

Criterion: Kd strictly below 2 nM. Is it met by Ha5-7acd10.1 (antibody, V domains shown, copies: 2 + 2) VH: QVQLVESGGGVVQPGRSLRLSCAASGFTFSSYGMHWVRQAPGKGLEWVAVIWYDGSNKYYADSVKGRFTISRDNSKNTLYLQMNSLRAEDTAVYYCARDRYSGYDYYYYYGMDVWGQGTTVTVSS VL: DIQMTQSPSSLSASVGDRVTITCRASQGIYNYLAWFQQKPGKAPKSLIYAASSLHSGVPSKFSGGGSGTDFTLTISSLQPEDFATYYCQQYTIYPFTFGPGTKVDIK ?
MET

Criterion: Kd strictly below 2 nM. Is it met by Ha5-3(3,5)37.1 (antibody, V domains shown) VH: QVQLQESGPGLVKPSETLSLTCTVSGGSISSYYWSWIRQPPGKGLEWIGYIYYSGSTNYNPSLKSRVTISVDTSKNQFSLKLNSVTAADTAVYYCARGYYYGSESPYGMDVWGQGTTVTVSS VL: DIVMTQSPLSLPVTPGEPASISCRSSQSLLHSNGHNYLDWYLQKPGQSPHLLIYLGSNRDSGVPDRFSGSGSGTDFTLKISRVEAEDVGVYYCMQALQIPCSFGQGTKLEIK ?
MET

Criterion: Kd strictly below 2 nM. Is it met by Ha5-7acd3.1 (antibody, V domains shown) VH: QVQLVESGGGVVQPGRSLRLSCAASGFTFSSYGMHWVRQAPGKGLEWVAVIWYDGSNKYYTDSVKGRFTISRDNSKNTLYLQMNSLRAEDTAVYYCARDRYSGYDYFYYYGMDVWGQGTTVTVSS VL: DIQMTQSPSSLSASVGDRVTITCRASQGIYNYLAWFQQKPGKAPRSLIYAASSLHSGVPSKFSGSGSGTDFTLTISSLQPEDFATYYCQQYTIYPFTFGPGTKVDIK ?
NOT MET

Criterion: Kd strictly below 2 nM. Is it met by Ha5-3(1,4)7.1 (antibody, V domains shown, Labelled with Alexa Fluor 488 in the FIG. 14 experiment. The site is not stated and the letters do not carry it.) VH: QVQLVESGGGVVQPGRSLRLSCAASGFTFSSYGMHWVRQAPGKGLEWVAVIWYDGSNKYYADSVKGRFTISRDNSKNTLYLQMNSLRAEDTAVYYCARDRYSGYGYYYYYGMDVWGQGTTVTVSS VL: DIQMTQSPSSLSASVGDRVTITCRASQDISNYLAWFQQKPGKAPKSLIYAASSLHSGVPSKFSGSGSGTDFTLTISSLQPEDFATYYCQQYTIYPFTFGPGTKVDIK ?
NOT MET
